All figures here come from PubChem BioAssay AID1209.

Target: Mannose-6-phosphate isomerase (Homo sapiens) (UniProt P34949)
Sequence (P34949 whole entry, looked up): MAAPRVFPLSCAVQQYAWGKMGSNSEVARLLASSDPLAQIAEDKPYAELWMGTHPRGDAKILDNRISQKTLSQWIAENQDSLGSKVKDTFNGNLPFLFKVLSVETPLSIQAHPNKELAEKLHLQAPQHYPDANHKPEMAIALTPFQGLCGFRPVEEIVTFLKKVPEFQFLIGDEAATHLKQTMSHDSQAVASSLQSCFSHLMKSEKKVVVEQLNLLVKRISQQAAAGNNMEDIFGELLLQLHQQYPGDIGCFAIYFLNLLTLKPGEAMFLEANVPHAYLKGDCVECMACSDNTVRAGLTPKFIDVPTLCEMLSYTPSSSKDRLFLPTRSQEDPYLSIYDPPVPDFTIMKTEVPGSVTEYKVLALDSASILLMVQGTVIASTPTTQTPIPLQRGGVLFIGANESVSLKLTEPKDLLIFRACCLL
Experiment: inhibitors of human PMI, primary screen, biochemical, fluorescence intensity, coupled assay (AID 1209);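 note: plate controls were DMSO vehicle for no effect and wells lacking substrate for full effect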
Settings: purified PMI enzyme, at 20 µM, hits give high values
About 810 (0.43%) of roughly 190,000 compounds were called active. The entries come from a sample that favours actives as a whole.
Output 1 for inhibition not less than 10%; output -1 otherwise.

NCCCC[C@@H]1NC(=O)[C@H](CCC(=O)O)NC(=O)c2cc([N+](=O)[O-])cc(I)c2OCC[C@@H](C(N)=O)NC1=O
-1
CC(C)(C)N=C1C([N+](=O)[O-])=CC=C2C1=NC1(CCCCC1)N2O
1
COc1ccc2c(C)c(Cc3ccccc3)c(=O)oc2c1OC
-1
N=C1C=CC=C2C1=NC1(CCCCC1)N2O
1
COCCn1c(=O)[nH]c2cc(C(=O)NCCc3ccc(S(N)(=O)=O)cc3)ccc2c1=O
-1
CC(=O)Nc1ccc(S(=O)(=O)N2CC3(C)CC2CC(C)(C)C3)cc1 (stereo unspecified)
1
Cc1c(Cc2ccccc2)c(=O)oc2c(O)c(O)ccc12
1
CC1(C)CC2(CC(c3ccccc3)Oc3cc(O)ccc32)NC(=O)N1 (stereo unspecified)
-1
COC(=O)c1ccc(-c2nc(-c3ccc(Br)o3)no2)cc1
1
O=C1NCCCC2c3c(cc(Br)c(O)c3Br)OC12N1CCCCC1 (stereo unspecified)
1
CCCCn1c(-c2sccc2C)n[nH]c1=S
-1

====

Biological target: Mannose-6-phosphate isomerase (Homo sapiens)
Assay: inhibitors of human PMI, primary screen, biochemical, fluorescence intensity, coupled assay (AID 1209);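 note: plate controls were DMSO vehicle for no effect and wells lacking substrate for full effect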
Conditions: purified PMI enzyme, at 20 µM, hits give high values
Among all 190,000 compounds or so, about 810 (0.43%) were called active. This excerpt belongs to a sample that is enriched for actives.
Output yes for inhibition not less than 10%; output no otherwise.

N#CC(C(=O)NC1CCCCC1)c1nc2ccccc2nc1N1CCN(c2ccc(F)cc2)CC1 (stereo unspecified)
no
OCc1ccc(O)c2ncccc12
yes
Cc1cc(C(=O)N2CCCC(C(=O)c3cccc4ccccc34)C2)nc(C)n1 (stereo unspecified)
no
Oc1c(Br)cc(C2N=C(c3ccccc3Cl)NO2)cc1Br (stereo unspecified)
no
O=C(c1ccc(Cl)cc1)c1ccc(CN2C(=O)c3ccccc3C2=O)o1
no
Cc1cc(=O)n2[nH]c(-c3ccc(F)cc3)nc2n1
no
CCOC(=O)c1c(C)oc2c1C(=O)c1ccccc1C2=O
no
Cc1ccc(NC(=O)C2=C(O)c3sccc3N(C)S2(=O)=O)cc1
no
COCCn1c(Cc2ccccc2)nnc1SCC(=O)Nc1cc(C)on1
no
CC1=C(CC(=O)c2ccc(Cl)cc2)C(=O)c2ccccc2C1=O
no
C=CCNC(=O)c1cc(C(=O)C(C)c2ncc(C(F)(F)F)cc2Cl)c[nH]1 (stereo unspecified)
no
CCOC(=O)NC(=O)CSc1ccccn1
no
Cc1ccc(NCc2ccccc2O)cc1
yes
CCOC(=O)N1CCN(C(=O)Cn2ccc3c(OC)cccc3c2=O)CC1
no
Cc1ccc(C(=O)c2c(C)oc3c2C(=O)C(=O)c2ccccc2-3)cc1
yes
Oc1ccc(CNc2ccccc2)c2cccnc12
yes
S=c1[nH]nc(-c2cccnc2)o1
no
COc1ccc(-n2c(=S)[nH]c3sc4c(c3c2=O)CCc2ccccc2-4)cc1
yes
O=[N+]([O-])c1cccc(-c2cn(-c3ccccc3)c(=S)[nH]2)c1
no
Cc1oc2c(c1C(=O)c1ccc(Cl)cc1)C(=O)C(=O)c1ccccc1-2
yes
CCOC(=O)c1ccc(NC(=O)CCC2COc3ccccc3O2)cc1 (stereo unspecified)
yes
Cc1cccc(-n2c(=O)c3c4c(sc3n3c(=S)[nH]nc23)CCC4)c1
no
O=C(NCC(O)c1ccc([N+](=O)[O-])cc1)c1cccc(S(=O)(=O)N2CCCC2)c1 (stereo unspecified)
no
Cc1ccc(NC(=S)C2=C(O)c3sccc3N(C)S2(=O)=O)cc1
yes
O=C(CCc1nnc(COc2ccccc2)o1)NCc1ccc(Cl)s1
no
CCSc1c(-c2ccccc2)nc2c(C)cccc2c1C(=O)O
no
O=C(NC(Cc1c[nH]c2ccccc12)C(=O)N/N=C/c1ccc(Cl)cc1)c1cccs1 (stereo unspecified)
yes
Cc1ccc(-n2c(=S)[nH]c3sc4c(c3c2=O)CCc2ccccc2-4)cc1
yes
CC[n+]1ccc(C)c2cc(P(=O)(c3ccccc3)c3ccccc3)ccc21
no
CCOC(=O)CN1CCc2c(C)nc3c(-c4ccc(OC)c(OC)c4)cnn3c21
yes
Cc1cccc(-n2c(=S)[nH]c3c(oc4ccccc43)c2=O)c1
no
Cc1cccc(N2C(=O)CC(SC(=Nc3ccccc3)Nc3ccccc3)C2=O)c1 (stereo unspecified)
yes
CCn1c(Cc2ccccc2)nnc1SCC(=O)Nc1cc(C)on1
no
Cc1ccc(S(=O)(=O)/N=C(/c2ccc(F)cc2)N2CCCC2)cc1
no
CCCCN(C(=O)c1ccc(S(=O)(=O)N(C)C)cc1)c1nc2ccccc2s1
yes
CCOC(=O)c1nnc(-c2ccc(C)cc2)nc1Oc1ccccc1Cl
yes
CC(=O)Nc1ccccc1C(=O)C(=O)Nc1ccc(C)c(F)c1
yes
CCCCn1c(Cc2ccccc2)nnc1SCC(=O)Nc1cc(C)on1
yes
Cc1oc2c(c1C(=O)O)C(=O)c1ccccc1C2=O
no
O=C(CN1C(=O)COc2ccccc21)NCCCN1CCN(Cc2ccccc2)CC1
no
O=C(c1ccccc1)C(C(=O)N1CCc2ccccc2C1)n1ccccc1=O (stereo unspecified)
no
Cc1oc2c(c1C(=O)N1CCC(C)CC1)C(=O)c1ccccc1C2=O
no
O=C(CSc1nc2[nH]ncc2c(=O)n1-c1ccccc1)NCc1cccs1
no
COCc1ccc(O)c2ncccc12
yes
O=[N+]([O-])c1ccc(O)c2ncccc12
no
